Biological target: Glutathione peroxidase 1 (Homo sapiens) (UniProt P07203)
Sequence (P07203 whole entry, looked up): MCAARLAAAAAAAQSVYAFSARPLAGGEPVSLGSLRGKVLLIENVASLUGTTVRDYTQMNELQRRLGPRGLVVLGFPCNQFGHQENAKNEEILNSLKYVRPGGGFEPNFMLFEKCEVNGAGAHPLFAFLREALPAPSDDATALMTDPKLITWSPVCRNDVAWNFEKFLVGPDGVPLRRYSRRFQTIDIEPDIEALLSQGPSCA
Assay: Primary qHTS Assay for Inhibitors of Recombinant Selenoprotein Glutathione Peroxidase 1 (GPX1) (AID 1845191); note: nearly all actives have a fitted effect of over 65% in size
Details: recombinant GPX1, GR-coupled NADPH fluorescence, 15 min; series mostly up to 48.8 µM
Inconclusive results are not listed. Activity calls are given as the source filed them. Calls come from the whole dose curve; as a rule, active = well fitted inhibition curve with a large enough effect; inconclusive = small, poorly fitted or top-dose-only effect; inactive = flat fitted curve, though single readings scatter.
measurement-label: outcome

Worked cases, answers included:
[
  {
    "compound": "CC[C@@H]1C(=O)N(C)c2cnc(Nc3ccc(C(=O)NC4CCC(N5CCN(CC6CC6)CC5)CC4)cc3OC)nc2N1C(C)C (some centres not stated)",
    "measurement-label": "outcome",
    "result": "inactive"
  },
  {
    "compound": "c1ccc2c(CCNc3ccc(Nc4ccncc4)cc3)c[nH]c2c1",
    "measurement-label": "outcome",
    "result": "inactive"
  },
  {
    "compound": "Cc1cc(Nc2cc(N3CCN(C)CC3)nc(Sc3ccc(NC(=O)C4CC4)cc3)n2)n[nH]1",
    "measurement-label": "outcome",
    "result": "inactive"
  },
  {
    "compound": "COc1cc2c(Nc3ccc(NC(=O)c4ccccc4)cc3)ncnc2cc1OCCCN1CCOCC1",
    "measurement-label": "outcome",
    "result": "inactive"
  },
  {
    "compound": "CC[C@H](CO)Nc1nc(NCc2ccccc2)c2ncn(C(C)C)c2n1",
    "measurement-label": "outcome",
    "result": "inactive"
  },
  {
    "compound": "COc1cccc(Nc2c(C(N)=O)cnc3c(C)cc(S(=O)(=O)c4cccc(C(=O)N(C)C)c4)cc23)c1",
    "measurement-label": "outcome",
    "result": "inactive"
  },
  {
    "compound": "O=C(NCCCNc1nc(Nc2cccc(NC(=O)N3CCCC3)c2)ncc1I)c1cccs1",
    "measurement-label": "outcome",
    "result": "inactive"
  },
  {
    "compound": "NC(=O)Nc1cc(-c2cccc(F)c2)sc1C(=O)N[C@H]1CCCNC1",
    "measurement-label": "outcome",
    "result": "inactive"
  }
]

Hello, I would appreciate it if you could give outcome for each entry below.
1. CCCCCCCCCC(=O)N[C@@H](Cc1c[nH]c2ccccc12)C(=O)N[C@H](CC(N)=O)C(=O)N[C@@H](CC(=O)O)C(=O)N[C@@H]1C(=O)NCC(=O)N[C@@H](CCCN)C(=O)N[C@@H](CC(=O)O)C(=O)N[C@H](C)C(=O)N[C@@H](CC(=O)O)C(=O)NCC(=O)N[C@H](CO)C(=O)N[C@@H]([C@@H](C)CC(=O)O)C(=O)N[C@@H](CC(=O)c2ccccc2N)C(=O)O[C@@H]1C
2. Clc1ccc2ncc(-c3cccc(NC4CNC4)n3)n2c1
3. Cc1nc(Nc2n[nH]c3c2CN(C(=O)N[C@H](CN(C)C)c2ccccc2)C3(C)C)c2sccc2n1
4. CCCn1c(=O)c2[nH]c(-c3cnn(Cc4cccc(C(F)(F)F)c4)c3)nc2n(CC)c1=O

Key:
1. inactive
2. inactive
3. inactive
4. inactive

Hello, I would appreciate it if you could give outcome for each entry below.
1. NC(=O)c1c(OCc2c(F)cc(Br)cc2F)nsc1NC(=O)NCCCCN1CCCC1
2. c1cc(-c2cnn3cc(-c4ccc(OCCN5CCCCC5)cc4)cnc23)ccn1
3. CNC(=O)c1ccc(-c2cnc3ncc(Cc4ccc5ncccc5c4)n3n2)cc1F
4. Cc1c(Cn2c(C)nc3c(C(=O)O)cc(N4CCOCC4)cc32)cccc1C(F)(F)F
5. CCN1CCN(CC(=O)Nc2ccc(-c3cccc4c(=O)cc(N5CCOCC5)oc34)c3sc4ccccc4c23)CC1

Key:
1: inactive; 2: inactive; 3: inactive; 4: inactive; 5: inactive

====

Give measured Potency for each item. Keep answers brief.
Assay: qHTS of pediatric cancer cell lines to identify multiple opportunities for drug repurposing: Primary screen for LAN-5 cells (AID 1347100); note: potency is the fitted concentration of half-maximal effect
Settings: LAN-5 neuroblastoma viability, CellTiter-Glo luminescence, 48 h; series mostly up to 46 µM
Inconclusive results are not listed. Calls of active or inactive are those of the source. Calls follow the shape of the dose curve; as a rule, active = well fitted cell-killing curve with a large enough effect; inconclusive = small, poorly fitted or top-dose-only effect; inactive = no such curve, though single readings can be large or run the other way.

Worked cases, answers included:
[
  {
    "compound": "C1=CCOCc2cc(ccc2OCCN2CCCC2)Nc2nccc(n2)-c2cccc(c2)OCC1",
    "Potency": "2640 nM (active)"
  },
  {
    "compound": "CNc1nccc(-c2cccnc2Oc2cc(C(=O)Nc3cccc(C(F)(F)F)c3)ccc2C)n1",
    "Potency": "16600 nM (active)"
  },
  {
    "compound": "CCNC(=O)Nc1ccc2ncc(Nc3ccc(C)cc3)nc2n1",
    "Potency": "935 nM (active)"
  },
  {
    "compound": "Nc1cc(C(F)(F)F)c(-c2cc(N3CCOCC3)nc(N3CCOCC3)n2)cn1",
    "Potency": "469 nM (active)"
  },
  {
    "compound": "C[C@@]12O[C@@H](C[C@]1(O)CO)n1c3ccccc3c3c4c(c5c6ccccc6n2c5c31)CNC4=O",
    "Potency": "132 nM (active)"
  },
  {
    "compound": "O=C(Nc1cc(C(F)(F)F)cc(C(F)(F)F)c1)c1cc(Cl)ccc1O",
    "Potency": "332 nM (active)"
  },
  {
    "compound": "CN(C1CCc2c(c3ccccc3n2CC(=O)O)C1)S(=O)(=O)c1ccc(F)cc1 (centres undefined)",
    "Potency": "5260 nM (active)"
  },
  {
    "compound": "Cc1ccc(S(=O)(=O)Nc2cc(Cl)ccc2C(=O)Nc2nc(-c3ccccc3)cs2)cc1",
    "Potency": "9350 nM (active)"
  },
  {
    "compound": "COc1cccc(-c2ccc(NC(=O)C3=C(C(=O)O)CCC3)c(F)c2)c1",
    "Potency": "13200 nM (active)"
  },
  {
    "compound": "C[C@@H](Oc1cc(-c2cnn(C3CCNCC3)c2)cnc1N)c1c(Cl)ccc(F)c1Cl",
    "Potency": "1050 nM (active)"
  }
]

Hello, I would appreciate it if you could give Potency for each entry below.
1. C=C1C(=CC=C2CCCC3(C)[C@@H]([C@H](C)C=CC=CC(O)(CC)CC)CC[C@@H]23)C[C@@H](O)C[C@@H]1O (some centres undefined)
2. COc1ccc2c(c1)CC[C@@H](CN(C)CC(=O)O)[C@H]2c1ccccc1
3. Cc1cc(Nc2nc(N[C@@H](C)c3ccc(F)cc3)c(C#N)cc2F)n[nH]1
4. Cc1ccc(-c2ncn(-c3ccc(Nc4nccc(-c5cccc(N6CCOCC6)c5)n4)cc3)n2)cn1
5. C=CC(=O)Nc1cc2c(Nc3ccc(F)c(Cl)c3)ncnc2cc1C#CC(C)(C)N1CCN(C)CC1
6. COc1cc2ncnc(Nc3ccc(F)c(Cl)c3)c2cc1NC(=O)C=CCN1CCCCC1
7. COc1cc2c(NC3CCN(C(C)C)CC3)nc(C3CCCCC3)nc2cc1OCCCN1CCCC1

Key:
["14800 nM (active)", "1050 nM (active)", "418 nM (active)", "66.2 nM (active)", "2960 nM (active)", "14800 nM (active)", "20900 nM (active)"]

Hello, I would appreciate it if you could give Potency for each entry below.
1. CN[C@H]1CCc2cc(OC)c(OC)c(OC)c2-c2ccc(OC)c(=O)cc21
2. C=CCn1c(=O)c2cnc(Nc3ccc(N4CCN(C)CC4)cc3)nc2n1-c1cccc(C(C)(C)O)n1

Key:
2.3 nM (active)
469 nM (active)

====

Tested on: JEG-3
Experiment: Primary qHTS to identify gynecologic anti-cancer compounds using libraries of approved drugs and bioactive compounds (AID 1345084); note: nearly all actives have a fitted effect of over 55% in size
Conditions: Gynecologic cancer cell panel viability, ATPlite luminescence, 48 h; series mostly up to 57.5 µM
Inconclusive results are not listed. Active and inactive are the calls of the source. Calls come from the whole dose curve; as a rule, active = well fitted cell-killing curve with a large enough effect; inconclusive = small, poorly fitted or top-dose-only effect, or effect the other way; inactive = flat fitted curve, though single readings scatter.
Hi! Could you answer with just one of these? active, inactive

[
  {
    "compound": "CCCNC(=O)Nc1ccc(Oc2ncnc3cc(OC)c(OC)cc23)cc1Cl",
    "label": "inactive"
  },
  {
    "compound": "CC(C)(C)c1cc(NC(=O)Nc2ccc(-c3cn4c(n3)sc3cc(OCCN5CCOCC5)ccc34)cc2)no1",
    "label": "inactive"
  },
  {
    "compound": "Cc1[nH]nc2ccc(-c3cncc(OC[C@@H](N)Cc4ccccc4)c3)cc12",
    "label": "active"
  },
  {
    "compound": "CC(O)C1C(=O)N2C(C(=O)O)=C(SC3CNC(C(=O)N(C)C)C3)C(C)C12 (centres undefined)",
    "label": "inactive"
  },
  {
    "compound": "Cc1c(Cn2c(C)nc3c(C(=O)O)cc(N4CCOCC4)cc32)cccc1C(F)(F)F",
    "label": "inactive"
  },
  {
    "compound": "Cc1nc2ccc(CN(C)c3ccc(C(=O)N[C@@H](CCC(=O)O)C(=O)O)s3)cc2c(=O)[nH]1",
    "label": "active"
  },
  {
    "compound": "C=CC(=O)Nc1cccc(Oc2nc(Nc3ccc(N4CCN(C)CC4)cc3OC)ncc2Cl)c1",
    "label": "inactive"
  },
  {
    "compound": "CCNC(=O)Nc1ccc2ncc(Nc3ccc(C)cc3)nc2n1",
    "label": "inactive"
  }
]

Exercise: What is the recorded call for this compound in the test? NC(=O)c1cccc2cn(-c3ccc([C@@H]4CCCNC4)cc3)nc12
Key: inactive
